System: NanoLuc luciferase (NLuc)
Experiment: normalised percent inhibition of luminescence (vs positive and negative controls); higher = stronger inhibition
Conditions: metal salt concentration 0.00025 mM; 100 mM HEPES buffer
Provide the recorded normalised percent inhibition for the entries that follow.
Numbers only, in %.

[Cl][Pt-2]([Cl])([Cl])[Cl].[K+].[K+] [potassium tetrachloroplatinate(II)] | -0.51

Hey, can you go through the list below and give me normalised percent inhibition for every item?
1. O=[N+]([O-])[O-].[Ag+] [silver nitrate]
2. CC#N.CC#N.CC#N.CC#N.F[B-](F)(F)F.[Cu+] [tetrakis(acetonitrile)copper(I) tetrafluoroborate]
3. O=S(=O)([O-])[O-].[Fe+2] [iron(II) sulfate]
4. O=[N+]([O-])[O-].O=[N+]([O-])[O-].[Cu+2] [copper(II) nitrate]

1: -1.44; 2: -0.342; 3: 0.242; 4: -0.297

Hey, can you go through the list below and give me normalised percent inhibition for every item?
1. O.O.O.O.O.O.O.O=S(=O)([O-])[O-].[Mg+2] [magnesium sulfate]
2. [Cl][Fe][Cl] [iron(II) chloride]

1. 1.39
2. -2.01

###

System: NanoLuc luciferase (NLuc)
Experiment: normalised percent inhibition of luminescence (vs positive and negative controls); higher = stronger inhibition
Conditions: metal salt concentration 0.01 mM; screening conditions buffer
property: normalised percent inhibition (%)
Answers are plain numbers, in %.

Example entries and their recorded answers appear below.
O=S(=O)([O-])[O-].[Fe+2] [iron(II) sulfate] | 3.08
CC#N.CC#N.CC#N.CC#N.F[B-](F)(F)F.[Cu+] [tetrakis(acetonitrile)copper(I) tetrafluoroborate] | 1.88
O=[N+]([O-])[O-].O=[N+]([O-])[O-].[Cd+2] [cadmium nitrate] | 0.612
[Cl][Sn][Cl] [tin(II) chloride] | 3.42
O=[N+]([O-])[O-].O=[N+]([O-])[O-].[Pb+2] [lead(II) nitrate] | -2.27

Quote normalised percent inhibition reported for O=[N+]([O-])[O-].O=[N+]([O-])[O-].O=[N+]([O-])[O-].[Ga+3] [gallium(III) nitrate] please. 2.43

###

Provide the recorded normalised percent inhibition for the entries that follow.
System: firefly luciferase (FLuc)
Experiment: normalised percent inhibition of luminescence (vs positive and negative controls); higher = stronger inhibition
Conditions: metal salt concentration 0.1 mM; 100 mM HEPES buffer
One number for each entry, in %.

Example entries and their recorded answers appear below.
CC#N.CC#N.CC#N.CC#N.F[B-](F)(F)F.[Cu+] [tetrakis(acetonitrile)copper(I) tetrafluoroborate] | 100
[Cl][Sn][Cl] [tin(II) chloride] | -9.51
O=S(=O)([O-])[O-].[Fe+2] [iron(II) sulfate] | 100
O=[N+]([O-])[O-].O=[N+]([O-])[O-].[Zn+2] [zinc nitrate] | 96.3
O.O.O.O.O.O.O.O=S(=O)([O-])[O-].[Mg+2] [magnesium sulfate] | -20
[Cl][Pt-2]([Cl])([Cl])[Cl].[K+].[K+] [potassium tetrachloroplatinate(II)] | 79.8
[Cl][Fe]([Cl])[Cl] [iron(III) chloride] | 101
O=[N+]([O-])[O-].O=[N+]([O-])[O-].[Pb+2] [lead(II) nitrate] | 96.7

# ---- query molecule ----
Please tell me the measured normalised percent inhibition for O=[N+]([O-])[O-].O=[N+]([O-])[O-].[Cu+2] [copper(II) nitrate] ; system: firefly luciferase (FLuc). 100

###

Test system: firefly luciferase (FLuc)
Experiment: normalised percent inhibition of luminescence (vs positive and negative controls); higher = stronger inhibition
Details: metal salt concentration 0.02 mM; screening conditions buffer
Provide the recorded normalised percent inhibition for the entries that follow.
Give bare numbers, in %.

Example entries and their recorded answers appear below.
[Cl][Sn][Cl] [tin(II) chloride] | 1.32
CC#N.CC#N.CC#N.CC#N.F[B-](F)(F)F.[Cu+] [tetrakis(acetonitrile)copper(I) tetrafluoroborate] | 7.18

Quote normalised percent inhibition reported for O=[N+]([O-])[O-].[Ag+] [silver nitrate] please. 101

###

System: NanoLuc luciferase (NLuc)
Test: normalised percent inhibition of luminescence (vs positive and negative controls); higher = stronger inhibition
Details: metal salt concentration 5 mM; screening conditions buffer
property: normalised percent inhibition (%)
One number for each entry, in %.

Example entries and their recorded answers appear below.
O=S(=O)([O-])[O-].[Fe+2] [iron(II) sulfate] | 159
O=[N+]([O-])[O-].O=[N+]([O-])[O-].[Cu+2] [copper(II) nitrate] | 137
[Cl][Fe]([Cl])[Cl] [iron(III) chloride] | 137

# ---- query molecule ----
Quote normalised percent inhibition reported for O=[N+]([O-])[O-].O=[N+]([O-])[O-].[Cd+2] [cadmium nitrate] please. 113

###

System: Renilla luciferase (RLuc)
Assay: normalised percent inhibition of luminescence (vs positive and negative controls); higher = stronger inhibition
Settings: metal salt concentration 0.05 mM; screening conditions buffer
Provide the recorded normalised percent inhibition for the entries that follow.
Give bare numbers, in %.

Hey, can you go through the list below and give me normalised percent inhibition for every item?
1. [Cl][Fe]([Cl])[Cl] [iron(III) chloride]
2. [Cl][Sn][Cl] [tin(II) chloride]
3. CC#N.CC#N.CC#N.CC#N.F[B-](F)(F)F.[Cu+] [tetrakis(acetonitrile)copper(I) tetrafluoroborate]
4. [Cl][Fe][Cl] [iron(II) chloride]
5. O=[N+]([O-])[O-].[Ag+] [silver nitrate]
6. O=[N+]([O-])[O-].O=[N+]([O-])[O-].[Pb+2] [lead(II) nitrate]

[-5.21, -5.21, 13.4, -2.31, 38.8, -11.8]

###

Tested on: NanoLuc luciferase (NLuc)
Experiment: normalised percent inhibition of luminescence (vs positive and negative controls); higher = stronger inhibition
Details: metal salt concentration 0.1 mM; 100 mM HEPES buffer
property: normalised percent inhibition (%)
Give bare numbers, in %.

O=S(=O)([O-])[O-].[Fe+2] [iron(II) sulfate] | 19.9
O=[N+]([O-])[O-].O=[N+]([O-])[O-].[Cu+2] [copper(II) nitrate] | 99.6
[Cl][Sn][Cl] [tin(II) chloride] | -5.15
O.O.O.O.O.O.O.O=S(=O)([O-])[O-].[Mg+2] [magnesium sulfate] | 1.8

# ---- query compound ----
Quote normalised percent inhibition reported for [Cl][Fe][Cl] [iron(II) chloride] please. 17.2

###

Provide the recorded normalised percent inhibition for the entries that follow.
Tested on: firefly luciferase (FLuc)
Assay: normalised percent inhibition of luminescence (vs positive and negative controls); higher = stronger inhibition
Conditions: metal salt concentration 0.05 mM; 100 mM HEPES buffer
One number for each entry, in %.

[Cl][Pt-2]([Cl])([Cl])[Cl].[K+].[K+] [potassium tetrachloroplatinate(II)] | 56.4

Hey, can you go through the list below and give me normalised percent inhibition for every item?
1. [Cl][Sn][Cl] [tin(II) chloride]
2. [Cl][Fe][Cl] [iron(II) chloride]
3. O=[N+]([O-])[O-].O=[N+]([O-])[O-].[Zn+2] [zinc nitrate]
4. O=[N+]([O-])[O-].[Ag+] [silver nitrate]
5. O=[N+]([O-])[O-].O=[N+]([O-])[O-].[Cd+2] [cadmium nitrate]
6. O.O.O.O.O.O.O.O=S(=O)([O-])[O-].[Mg+2] [magnesium sulfate]
7. O=[N+]([O-])[O-].O=[N+]([O-])[O-].O=[N+]([O-])[O-].[Ga+3] [gallium(III) nitrate]

1. -13.9
2. 100
3. 92.6
4. 100
5. 99.1
6. -6.49
7. 98.3

###

Provide the recorded normalised percent inhibition for the entries that follow.
Tested on: firefly luciferase (FLuc)
Assay: normalised percent inhibition of luminescence (vs positive and negative controls); higher = stronger inhibition
Conditions: metal salt concentration 0.2 mM; screening conditions buffer
Number plus unit, in that order.

Example entries and their recorded answers appear below.
[Cl][Fe][Cl] [iron(II) chloride] | 22.9%
[Cl][Pt-2]([Cl])([Cl])[Cl].[K+].[K+] [potassium tetrachloroplatinate(II)] | 98.8%
O=S(=O)([O-])[O-].[Fe+2] [iron(II) sulfate] | 28.7%
O=[N+]([O-])[O-].O=[N+]([O-])[O-].[Zn+2] [zinc nitrate] | 15%

# ---- query compound ----
Quote normalised percent inhibition reported for [Cl][Sn][Cl] [tin(II) chloride] please. 99.3%

###

Provide the recorded normalised percent inhibition for the entries that follow.
System: Renilla luciferase (RLuc)
Test: normalised percent inhibition of luminescence (vs positive and negative controls); higher = stronger inhibition
Settings: metal salt concentration 0.5 mM; screening conditions buffer
Answers are plain numbers, in %.

[Cl][Fe]([Cl])[Cl] [iron(III) chloride] | 48.5

Hey, can you go through the list below and give me normalised percent inhibition for every item?
1. O=[N+]([O-])[O-].O=[N+]([O-])[O-].[Zn+2] [zinc nitrate]
2. O=S(=O)([O-])[O-].[Fe+2] [iron(II) sulfate]
3. [Cl][Fe][Cl] [iron(II) chloride]

-0.599
93.3
84.8
